Target: LFA-1 binding to immobilized ICAM-1 (Homo sapiens, UniProt P05107+P20701)
Construct: made in house; host or cells: transfected 293 cells (LFA-1)
Sequence (P20701 26-1170): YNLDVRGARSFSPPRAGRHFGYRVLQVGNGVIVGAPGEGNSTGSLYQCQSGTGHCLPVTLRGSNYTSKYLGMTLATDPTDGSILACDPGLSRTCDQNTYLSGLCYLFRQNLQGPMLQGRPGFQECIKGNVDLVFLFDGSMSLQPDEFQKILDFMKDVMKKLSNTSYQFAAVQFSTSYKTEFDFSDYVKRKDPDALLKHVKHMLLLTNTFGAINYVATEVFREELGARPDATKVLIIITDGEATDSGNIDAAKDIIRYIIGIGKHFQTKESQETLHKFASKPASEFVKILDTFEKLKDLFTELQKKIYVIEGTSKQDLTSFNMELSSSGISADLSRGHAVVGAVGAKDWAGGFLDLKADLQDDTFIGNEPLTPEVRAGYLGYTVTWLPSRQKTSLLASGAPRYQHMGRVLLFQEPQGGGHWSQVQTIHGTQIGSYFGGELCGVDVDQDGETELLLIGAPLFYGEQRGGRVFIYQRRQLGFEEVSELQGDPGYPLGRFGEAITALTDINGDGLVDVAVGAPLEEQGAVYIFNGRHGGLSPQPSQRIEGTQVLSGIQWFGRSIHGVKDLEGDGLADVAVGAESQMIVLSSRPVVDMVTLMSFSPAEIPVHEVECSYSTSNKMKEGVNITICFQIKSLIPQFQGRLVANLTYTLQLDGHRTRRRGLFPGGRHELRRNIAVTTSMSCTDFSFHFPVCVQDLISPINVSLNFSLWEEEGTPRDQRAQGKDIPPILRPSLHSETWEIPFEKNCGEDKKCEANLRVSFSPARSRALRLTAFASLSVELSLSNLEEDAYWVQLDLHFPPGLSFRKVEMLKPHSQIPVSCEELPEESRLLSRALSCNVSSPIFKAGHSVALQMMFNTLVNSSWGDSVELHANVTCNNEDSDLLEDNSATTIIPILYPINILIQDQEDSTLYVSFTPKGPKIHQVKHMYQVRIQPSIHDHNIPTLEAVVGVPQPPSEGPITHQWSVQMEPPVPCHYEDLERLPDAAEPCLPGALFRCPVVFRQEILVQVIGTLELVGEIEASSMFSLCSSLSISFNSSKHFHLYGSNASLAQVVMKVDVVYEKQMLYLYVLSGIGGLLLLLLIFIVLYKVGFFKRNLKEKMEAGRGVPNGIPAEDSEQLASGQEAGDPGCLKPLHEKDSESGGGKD
Sequence (P05107 23-769): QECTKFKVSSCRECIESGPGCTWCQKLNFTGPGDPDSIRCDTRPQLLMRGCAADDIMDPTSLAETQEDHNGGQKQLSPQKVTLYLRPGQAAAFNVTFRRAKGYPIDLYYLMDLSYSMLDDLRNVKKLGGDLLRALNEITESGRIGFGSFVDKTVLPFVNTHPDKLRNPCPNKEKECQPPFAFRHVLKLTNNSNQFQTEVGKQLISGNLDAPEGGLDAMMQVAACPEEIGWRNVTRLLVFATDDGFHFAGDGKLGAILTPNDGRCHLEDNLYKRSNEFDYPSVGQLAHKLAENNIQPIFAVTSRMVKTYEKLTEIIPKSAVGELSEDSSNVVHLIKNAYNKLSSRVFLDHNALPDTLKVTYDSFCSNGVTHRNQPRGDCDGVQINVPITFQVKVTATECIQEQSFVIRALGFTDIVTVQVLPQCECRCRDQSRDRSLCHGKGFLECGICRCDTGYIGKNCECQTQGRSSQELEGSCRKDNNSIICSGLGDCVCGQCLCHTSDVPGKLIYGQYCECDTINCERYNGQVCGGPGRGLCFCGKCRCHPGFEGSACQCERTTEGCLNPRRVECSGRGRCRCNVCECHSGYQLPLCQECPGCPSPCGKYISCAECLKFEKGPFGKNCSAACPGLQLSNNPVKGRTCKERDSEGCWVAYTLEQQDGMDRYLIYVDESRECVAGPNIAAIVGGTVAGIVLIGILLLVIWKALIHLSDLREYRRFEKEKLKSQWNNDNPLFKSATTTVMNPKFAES
Experiment: LFA-1/ICAM-1 protein-protein assay (solid-phase ELISA)
Conditions: read-out: LFA-1/ICAM-1 Protein-Protein Assay IC50
pIC50: −log10 of the molar value.
measure: pIC50

- smiles-code: "O=C(NCc1cccc(O)c1)c1ccc(C(=O)N[C@@H](CNC(=O)c2cc(F)cc(C(F)(F)F)c2)C(=O)O)c(Cl)c1"
  pIC50: 8.27
- smiles-code: "CSCC[C@H](N)C(=O)NC[C@H](NC(=O)c1ccc(C(=O)NCc2cccc(O)c2)cc1Cl)C(=O)O"
  pIC50: 8.31

[I] O=C(Cc1ccc([N+](=O)[O-])cc1)NC[C@H](NC(=O)c1ccc(C(=O)NCc2cccc(O)c2)cc1Cl)C(=O)O
[II] O=C(COc1ccccc1)c1ccc(C(=O)N[C@@H](CNC(=O)c2cccs2)C(=O)O)c(Cl)c1
Which value of pIC50 is numerically greater: that of I or that of II ? Return value: the label identifying the chosen record. I
(I: 8.40, II: 7.43)

====

Target: LFA-1 binding to immobilized ICAM-1 (Homo sapiens, UniProt P05107+P20701)
Construct: made in house; host or cells: transfected 293 cells (LFA-1)
Experiment: LFA-1/ICAM-1 protein-protein assay (solid-phase ELISA)
Conditions: read-out: LFA-1/ICAM-1 Protein-Protein Assay IC50
pIC50: −log10 of the molar value.
measure: pIC50

[a] Cc1ccc(C(=O)NC[C@H](NC(=O)c2c(Cl)cc(C(=O)NCc3cccc(O)c3)cc2Cl)C(=O)O)s1
[b] COc1cscc1C(=O)NC[C@H](NC(=O)c1ccc(C(=O)NCc2cccc(O)c2)cc1Cl)C(=O)O
[c] O=C(Cc1ccc([N+](=O)[O-])cc1)NC[C@H](NC(=O)c1c(Cl)cccc1Cl)C(=O)O
Ordering criterion: pIC50; begin with the maximum. I would appreciate it if you listed the labels in the requested order. a, b, c
(a: 9.70, b: 8.92, c: 7.51)

====

Biological target: ICAM-1 binding to immobilized Mac-1 (Homo sapiens, UniProt P05107+P11215)
Construct: made in house; host or cells: transfected 293 cells (Mac-1)
Sequence (P05107 23-769, other chains not shown): as the sequence (P05107 23-769) above
Assay: Mac-1/ICAM-1 screening assay (solid-phase ELISA)
Settings: read-out: Mac-1/ICAM-1 Protein-Protein Assay IC50
pIC50: −log10 of the molar value.
measure: pIC50

Recorded results for 5 compounds are shown here.
- compound: "O=C(NCc1cccc(O)c1)c1ccc(C(=O)N[C@@H](CNC(=O)c2cnnc3ccccc23)C(=O)O)c(Cl)c1 [Example 185]"
  numeric-value: 6.73
- compound: "CC(=O)Oc1ccccc1C(=O)NC[C@H](NC(=O)c1ccc(C(=O)NCc2cccc(O)c2)cc1Cl)C(=O)O [Example 117]"
  numeric-value: 7.48
- compound: "Cc1cc(C(=O)NCc2cccc(O)c2)cc(Cl)c1C(=O)N[C@@H](CNC(=O)c1cccs1)C(=O)O [Example 338]"
  numeric-value: 7.68
- compound: "O=C(NCc1cccc(O)c1)c1ccc(C(=O)N[C@@H](CNC(=O)c2sccc2Cl)C(=O)O)c(Cl)c1 [Example 156]"
  numeric-value: 7.92
- compound: "O=C(COc1ccccc1)c1ccc(C(=O)N[C@@H](CNC(=O)c2cccs2)C(=O)O)c(Cl)c1 [Example 376]"
  numeric-value: 6.82

[P] CC(=O)NC[C@H](NC(=O)c1ccc(C(=O)NCc2cccc(O)c2)cc1Cl)C(=O)O [Example 193]
[Q] Cc1ccccc1C(=O)NC[C@H](NC(=O)c1ccc(C(=O)NCc2cccc(O)c2)cc1Cl)C(=O)O [Example 137]
[R] O=C(NCc1cccc(O)c1)c1ccc(C(=O)N[C@@H](CNC(=O)c2c[nH]c(=O)[nH]c2=O)C(=O)O)c(Cl)c1 [Example 172]
[S] O=C(CC1CCCCC1)NC[C@H](NC(=O)c1ccc(C(=O)NCc2cccc(O)c2)cc1Cl)C(=O)O [Example 78]
[T] O=C(NCc1cccc(O)c1)c1ccc(C(=O)N[C@@H](CNC(=O)C(c2ccccc2)c2ccccc2)C(=O)O)c(Cl)c1 [Example 86]
Rank items: key pIC50, increasing. I would appreciate it if you listed the labels in the requested order. R, T, S, P, Q
(R: 6.27, T: 6.75, S: 7.03, P: 7.31, Q: 7.66)

[A] N[C@@H](CCC(=O)NC[C@H](NC(=O)c1ccc(C(=O)NCc2cccc(O)c2)cc1Cl)C(=O)O)C(=O)O [Example 202]
[B] O=C(NCc1cccc2c1CCN2)c1ccc(C(=O)N[C@@H](CNC(=O)c2cccs2)C(=O)O)c(Cl)c1 [Example 318]
# compare pIC50 for A vs B ; return the one with the smaller value Return value: the label identifying the chosen record. B

[P] O=C(NCc1cccc(O)c1)c1ccc(C(=O)N[C@@H](CNC(=O)c2ccc3ncsc3c2)C(=O)O)c(Cl)c1 [Example 177]
[Q] COc1ccc2nc3ccc(C(=O)NC[C@H](NC(=O)c4ccc(C(=O)NCc5cccc(O)c5)cc4Cl)C(=O)O)cn3c(=O)c2c1 [Example 191]
# compare pIC50 for P vs Q ; return the one with the smaller value Return value: the label identifying the chosen record. Q
(Q: 6.89, P: 7.72)

[P] O=C(NC[C@H](NC(=O)c1ccc(C(=O)[C@H]2C[C@@H]2c2ccccc2)cc1Cl)C(=O)O)c1cccs1 [Example 377]
[Q] O=C(NCc1cccc(O)c1)c1ccc(C(=O)N[C@@H](CNC(=O)c2cccc3ccccc23)C(=O)O)c(Cl)c1 [Example 178]
Which value of pIC50 is numerically greater: that of P or that of Q ? Return value: the label identifying the chosen record. Q

[I] O=C(NCc1cccc(O)c1)c1ccc(C(=O)N[C@@H](CNC(=O)c2ccc3[nH]cnc3c2)C(=O)O)c(Cl)c1 [Example 176]
[II] Nc1cccn(CC(=O)NC[C@H](NC(=O)c2ccc(C(=O)NCc3cccc(O)c3)cc2Cl)C(=O)O)c1=O [Example 266]
# compare pIC50 for I vs II ; return the one with the smaller value Return value: the label identifying the chosen record. II
(II: 6.51, I: 7.27)

[I] O=C(Cc1ccc2ccccc2c1)NC[C@H](NC(=O)c1ccc(C(=O)NCc2cccc(O)c2)cc1Cl)C(=O)O [Example 87]
[II] O=C(NCc1cccc(O)c1)c1ccc(C(=O)N[C@@H](CNC(=O)c2ccc3ccccc3c2)C(=O)O)c(Cl)c1 [Example 179]
[III] NCCCC(=O)NC[C@H](NC(=O)c1ccc(C(=O)NCc2cccc(O)c2)cc1Cl)C(=O)O [Example 261]
Rank items: key pIC50, increasing. I would appreciate it if you listed the labels in the requested order. I, II, III
(I: 7.06, II: 7.51, III: 7.96)

[a] O=C1CC[C@@H](C(=O)NC[C@H](NC(=O)c2ccc(C(=O)NCc3cccc(O)c3)cc2Cl)C(=O)O)O1 [Example 96]
[b] O=C(NCc1cccc(O)c1)c1ccc(C(=O)N[C@@H](CNC(=O)c2cnccn2)C(=O)O)c(Cl)c1 [Example 170]
[c] O=C(NCc1cccc(O)c1)c1ccc(C(=O)N[C@@H](CNC(=O)c2ccc[nH]2)C(=O)O)c(Cl)c1 [Example 151]
Put the items in sequence by pIC50, from largest down. I would appreciate it if you listed the labels in the requested order. c, a, b
(c: 7.48, a: 7.25, b: 6.94)

[I] O=C(Cc1ccc([N+](=O)[O-])cc1)NC[C@H](NC(=O)c1ccc(C(=O)NCc2cccc(O)c2)cc1Cl)C(=O)O [Example 81]
[II] CC(C)C(=O)NC[C@H](NC(=O)c1ccc(C(=O)NCc2cccc(O)c2)cc1Cl)C(=O)O [Example 194]
Which value of pIC50 is numerically greater: that of I or that of II ? Return value: the label identifying the chosen record. II
